Cited source for all entries: patent US20120322819A1

Target: angiotensin II type 1 receptor (Oryctolagus cuniculus)
Construct: By using a specimen of isolated rabbit blood vessels
Sequence (P34976 1-359): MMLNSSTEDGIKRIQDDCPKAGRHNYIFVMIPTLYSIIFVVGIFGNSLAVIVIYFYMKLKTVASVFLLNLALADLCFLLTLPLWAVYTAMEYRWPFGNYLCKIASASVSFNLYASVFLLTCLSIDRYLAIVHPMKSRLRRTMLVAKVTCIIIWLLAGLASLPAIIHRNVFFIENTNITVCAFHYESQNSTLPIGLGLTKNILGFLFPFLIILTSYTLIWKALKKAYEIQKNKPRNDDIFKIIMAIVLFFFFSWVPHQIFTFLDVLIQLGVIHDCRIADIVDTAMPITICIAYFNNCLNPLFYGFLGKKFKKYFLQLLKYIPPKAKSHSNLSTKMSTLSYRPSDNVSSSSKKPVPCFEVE
Experiment: Angiotensin II antagonistic activity in isolated rabbit blood vessels (angiotensin II-induced contraction of thoracic aorta ring)
Settings: angiotensin II (10 nM)-induced contraction, compound 1 nmol/L to 10 μmol/L, 37° C., read-out: IC50 (50% inhibition concentration of angiotensin II-induced contraction)
PROPERTY_MEASURED: pIC50
# pIC50 is unitless: minus log10 of the molar concentration; print number only

Would you please look over these solved cases?
What measured pIC50 goes with CCCCc1nc(C)nc(OCC(=O)O)c1Cc1ccc(-c2ccccc2-c2noc(=O)[nH]2)cc1 ?
6.64

What measured pIC50 goes with CCCCc1nc(C)nc(OCC(=O)N(CC)CC)c1Cc1ccc(-c2ccccc2-c2noc(=O)[nH]2)cc1 ?
7.22

What measured pIC50 goes with CCCCc1nc(C)nc(OCCOC)c1Cc1ccc(-c2ccccc2-c2noc(=O)[nH]2)cc1 ?
6.32

What measured pIC50 goes with CCCCc1nc(C)nc(OC(Cc2ccccc2)C(=O)O)c1Cc1ccc(-c2ccccc2-c2noc(=O)[nH]2)cc1 (centres unmarked) ?
6.19

What measured pIC50 goes with CCCCc1nc(C)nc(OCCO)c1Cc1ccc(-c2ccccc2-c2noc(=O)[nH]2)cc1 ?
6.11

Next:
What measured pIC50 goes with CCCCc1nc(C)nc(OCC(=O)OCC)c1Cc1ccc(-c2ccccc2-c2noc(=O)[nH]2)cc1 ?
6.09

What measured pIC50 goes with CCCCc1nc(C)nc(OC(C(=O)O)c2ccccc2)c1Cc1ccc(-c2ccccc2-c2noc(=O)[nH]2)cc1 (centres unmarked) ?
6.42

----------
// values below are reported IC50
target: angiotensin II type 1 receptor (Oryctolagus cuniculus); construct: By using a specimen of isolated rabbit blood vessels; assay: Angiotensin II antagonistic activity in isolated rabbit blood vessels (angiotensin II-induced contraction of thoracic aorta ring); conditions: angiotensin II (10 nM)-induced contraction, compound 1 nmol/L to 10 μmol/L, 37° C., read-out: IC50 (50% inhibition concentration of angiotensin II-induced contraction)
State just the number; it will be interpreted in nM.

What measured IC50 goes with CCCCc1nc(C)nc(OCC(=O)N2CCCCC2)c1Cc1ccc(-c2ccccc2-c2noc(=O)[nH]2)cc1 [Example 30] ?
230

What measured IC50 goes with CCCCc1nc(C)nc(OCCCC(=O)OCC)c1Cc1ccc(-c2ccccc2-c2noc(=O)[nH]2)cc1 [Example 6] ?
130

What measured IC50 goes with CCCCc1nc(C)nc(OCC(=O)NCC)c1Cc1ccc(-c2ccccc2-c2noc(=O)[nH]2)cc1 [Example 4] ?
290

Could you now consider this next compound?
What measured IC50 goes with CCCCc1nc(C)nc(OCC(C)=O)c1Cc1ccc(-c2ccccc2-c2noc(=O)[nH]2)cc1 [Example 22] ?
100
